Assay: Parallel artificial membrane permeability assay, blood-brain barrier (PAMPA-BBB)
Conditions: Table S2, PAMPA-BBB
Provide the recorded Pe experimental for the entries that follow.

Query: Sample Cc1c(NC(=O)C(C)c2ccc(-c3ccccc3)c(F)c2)c(=O)n(-c2ccccc2)n1C (stereo not drawn) [Compound 8] — what was its Pe experimental?
Reply: 17,25 10-6 cm s-1

Query: Item under review: Cc1c(N(C)C(=O)C(C)c2ccc(-c3ccccc3)c(F)c2)c(=O)n(-c2ccccc2)n1C (stereo not drawn) [Compound 11] . Reported Pe experimental?
Reply: 9,26 10-6 cm s-1

Query: Item under review: Cc1c(NC(=O)Cc2ccc(-c3ccccc3)cc2)c(=O)n(-c2ccccc2)n1C [Compound 9] . Reported Pe experimental?
Reply: 4,51 10-6 cm s-1

Query: Please give the measured Pe experimental for this compound: CN1C(=O)CN=C(c2ccccc2)c2cc(Cl)ccc21 [Diazepam, reference compound]
Reply: 14,30 10-6 cm s-1

Query: What Pe experimental value was documented for this compound, Cc1c(NC(=O)C(C)c2ccc(CC(C)C)cc2)c(=O)n(-c2ccccc2)n1C (stereo not drawn) [Compound 7] ?
Reply: 12,77 10-6 cm s-1

Query: # get_value(readout='Pe experimental', item= Cc1c(N(C)C(=O)C(C)c2ccc(CC(C)C)cc2)c(=O)n(-c2ccccc2)n1C (stereo not drawn) [Compound 10] )
Reply: 12,68 10-6 cm s-1

* * *

Provide the reported Pe Exp of each item.
Assay: Parallel artificial membrane permeability assay, gastrointestinal (PAMPA-GI / PAMPA-GTI)
Settings: Table S1, PAMPA-GTI

Query: Fill blank: measured Pe Exp of the compound Cc1c(NC(=O)C(C)c2ccc(-c3ccccc3)c(F)c2)c(=O)n(-c2ccccc2)n1C (stereo not drawn) is ____.
Reply: 9,69 10-6 cm/s

Query: Given the entry O=c1ccc2ccccc2o1 [Coumarin, reference compound] , report its measured Pe Exp.
Reply: 22,65 10-6 cm/s

Query: Would you mind telling me what Pe Exp value was observed for Cc1c(NC(=O)C(C)c2ccc(CC(C)C)cc2)c(=O)n(-c2ccccc2)n1C (stereo not drawn) ?
Reply: 15,38 10-6 cm/s

* * *

Please respond with reported Plasma Metabolization Rate for every item in the list.
Tested on: plasma carboxylesterases
Experiment: Plasma stability against enzymatic hydrolysis
Assay type: in vitro ADME, Wistar rats
Conditions: rat plasma, determined after 240 min
Value expressed in %; do not type the unit.

Query: Could you share which Plasma Metabolization Rate value was measured for Cc1c(N(C)C(=O)C(C)c2ccc(-c3ccccc3)c(F)c2)c(=O)n(-c2ccccc2)n1C (centres unmarked) [Compound 11] ?
Reply: 13.04

Query: Quick one: Plasma Metabolization Rate of Cc1c(NC(=O)Cc2ccc(-c3ccccc3)cc2)c(=O)n(-c2ccccc2)n1C [Compound 9] ?
Reply: 24.56

Query: Could you tell me which Plasma Metabolization Rate is on file for Cc1c(N(C)C(=O)C(C)c2ccc(CC(C)C)cc2)c(=O)n(-c2ccccc2)n1C (centres unmarked) [Compound 10] ?
Reply: 32.50

Query: Consider the compound shown here: Cc1c(NC(=O)C(C)c2ccc(CC(C)C)cc2)c(=O)n(-c2ccccc2)n1C (centres unmarked) [Compound 7] What is its recorded Plasma Metabolization Rate?
Reply: 56.13

Query: # lookup: Plasma Metabolization Rate of Cc1c(NC(=O)C(C)c2ccc(-c3ccccc3)c(F)c2)c(=O)n(-c2ccccc2)n1C (centres unmarked) [Compound 8]
Reply: 18.66
